test: absolute recovery over vacuum-assisted evaporative concentration; higher = better recovery; conditions: wastewater influent; enrichment method: VEC
For each entry below, report its absolute recovery value.
Numbers only, in %.

Reference set (2 entries):
COc1cc2[nH+]c(N3CCN(C(=O)C4COc5ccccc5O4)CC3)nc(N)c2cc1OC (stereo unspecified)
107
CCCN(CCOc1c(Cl)cc(Cl)cc1Cl)C(=O)n1ccnc1
101

# batch: return absolute recovery for each of the 4 molecules below
1. CC=CC(=O)N(CC)c1ccccc1C
2. COCCc1ccc(OCC(O)C[NH2+]C(C)C)cc1 (stereo unspecified)
3. O=C1NC(=O)C(c2ccccc2)(c2ccccc2)N1
4. COC(=O)c1csc(C)c1S(=O)(=O)[N-]C(=O)n1nc(OC)n(C)c1=O

Outgoing:
[70.2, 102, 112, 106]

# batch: return absolute recovery for each of the 5 molecules below
1. Cc1ccc(C(C)NC(=O)C(NC(=O)OC(C)C)C(C)C)cc1 (stereo unspecified)
2. COc1ccc(NC(=O)N(C)C)cc1Cl
3. CCC[NH+](CC)CC1COC2(CCC(C(C)(C)C)CC2)O1 (stereo unspecified)
4. NS(=O)(=O)c1cc(C2(O)NC(=O)c3ccccc32)ccc1Cl (stereo unspecified)
5. CC(C)(Oc1ccc(Cl)cc1)C(=O)[O-]

Outgoing:
92.3
98.1
66.6
104
103
